Origin of measurements: patent US11530210B2

# measured.on: human GluN1/GluN2B NMDA receptors (Homo sapiens, UniProt Q13224)
# Sequence (Q13224 27-1484, other chains not shown): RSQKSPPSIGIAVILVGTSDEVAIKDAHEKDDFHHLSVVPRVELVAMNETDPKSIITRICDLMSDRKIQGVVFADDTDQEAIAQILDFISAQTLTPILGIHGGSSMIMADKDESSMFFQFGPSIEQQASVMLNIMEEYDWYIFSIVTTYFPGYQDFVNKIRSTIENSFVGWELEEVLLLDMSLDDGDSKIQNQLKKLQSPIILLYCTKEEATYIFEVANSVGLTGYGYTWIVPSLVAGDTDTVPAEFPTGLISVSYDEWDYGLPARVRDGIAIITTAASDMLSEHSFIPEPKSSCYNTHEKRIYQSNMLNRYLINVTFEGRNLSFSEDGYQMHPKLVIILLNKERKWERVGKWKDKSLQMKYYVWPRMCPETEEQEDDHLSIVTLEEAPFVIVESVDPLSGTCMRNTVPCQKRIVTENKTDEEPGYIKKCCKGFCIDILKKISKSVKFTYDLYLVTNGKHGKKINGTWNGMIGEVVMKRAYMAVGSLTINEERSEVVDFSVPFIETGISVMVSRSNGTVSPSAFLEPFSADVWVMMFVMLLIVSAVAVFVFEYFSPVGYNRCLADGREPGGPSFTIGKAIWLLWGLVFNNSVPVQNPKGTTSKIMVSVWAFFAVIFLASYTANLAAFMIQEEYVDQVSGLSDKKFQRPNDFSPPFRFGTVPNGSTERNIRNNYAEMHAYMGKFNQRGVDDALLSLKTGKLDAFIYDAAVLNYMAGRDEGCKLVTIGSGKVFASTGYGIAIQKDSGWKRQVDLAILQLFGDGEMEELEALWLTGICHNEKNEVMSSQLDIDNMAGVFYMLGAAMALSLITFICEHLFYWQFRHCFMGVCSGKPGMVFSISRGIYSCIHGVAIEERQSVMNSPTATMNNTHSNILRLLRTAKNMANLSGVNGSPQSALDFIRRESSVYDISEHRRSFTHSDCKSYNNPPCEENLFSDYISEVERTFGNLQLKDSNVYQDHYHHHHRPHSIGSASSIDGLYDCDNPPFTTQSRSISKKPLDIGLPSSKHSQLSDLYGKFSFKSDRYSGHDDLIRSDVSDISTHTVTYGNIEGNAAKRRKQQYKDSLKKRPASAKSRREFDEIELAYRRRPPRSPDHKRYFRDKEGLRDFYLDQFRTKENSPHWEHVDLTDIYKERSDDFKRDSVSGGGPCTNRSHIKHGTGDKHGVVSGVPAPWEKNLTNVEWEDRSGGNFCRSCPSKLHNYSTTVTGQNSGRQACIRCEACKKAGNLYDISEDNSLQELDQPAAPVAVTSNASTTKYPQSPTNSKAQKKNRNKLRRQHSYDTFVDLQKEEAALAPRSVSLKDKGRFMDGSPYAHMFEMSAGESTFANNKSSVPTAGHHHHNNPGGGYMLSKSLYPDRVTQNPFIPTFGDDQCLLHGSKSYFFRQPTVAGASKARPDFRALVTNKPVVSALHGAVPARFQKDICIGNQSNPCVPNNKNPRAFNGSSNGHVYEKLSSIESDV
# assay.comment: Calcium flux (FLIPR) assay on cloned human NR1/GluN2B ion channels expressed in mammalian cells (standard and HTS variants)
# condition.notes: cells expressing human GluN1/GluN2B, glutamate and glycine co-agonists
pIC50: −log10 of the molar value. Structures can show the parent of a compound that is named as a salt.
value.kind: pIC50

These recorded examples may help you get a feel for the data.
{"columns": ["compound", "value.kind", "assay.result"],
 "data": [
  ["FC(F)(F)c1cccc(-c2cnc3cnn(Cc4cccnc4)c3c2)c1 [Example 163, hydrochloride salt]", "pIC50", 7.05],
  ["Cc1nnc(Cn2ncc3ncc(-c4ccc(C(F)F)s4)cc32)o1", "pIC50", 6.82],
  ["Cc1nnc(Cn2nc(F)c3ncc(-c4ccc(F)c(Cl)c4)cc32)o1", "pIC50", 7.06],
  ["COc1cc(Cn2ncc3ncc(-c4ccc(F)c(OC(F)F)c4)cc32)ncn1", "pIC50", 6.46],
  ["CC(F)(F)c1cccc(-c2cnc3cnn(Cc4cccnn4)c3c2)c1", "pIC50", 6.96],
  ["Cc1cncc(Cn2ncc3ncc(-c4ccc(F)c(C)c4)cc32)c1 [Example 180, trifluoroacetate salt]", "pIC50", 7.21]
]}

I = Fc1cc(-c2cnc3cnn(Cc4cncc(OC(F)F)c4)c3c2)cc(F)c1F
II = COc1cccc(-c2cnc3cnn(Cc4nc(C)no4)c3c2)c1
Which numeric pIC50 is bigger, that of I or that of II ? Write down the label of the entry you select.
I
(I: 6.01, II: 5.64)

====

# measured.on: human GluN1/GluN2B NMDA receptors (Homo sapiens, UniProt Q13224)
# assay.comment: Calcium flux (FLIPR) assay on cloned human NR1/GluN2B ion channels expressed in mammalian cells (standard and HTS variants)
# condition.notes: cells expressing human GluN1/GluN2B, glutamate and glycine co-agonists
Structures can show the parent of a compound that is named as a salt.
value.kind: IC50 (nM)

These recorded examples may help you get a feel for the data.
{"columns": ["compound", "measured.on", "assay.result"],
 "data": [
  ["Cn1cc(Cn2ncc3ncc(-c4ccc(F)c(OC(F)F)c4)cc32)nn1", "human GluN1/GluN2B NMDA receptors (Homo sapiens, UniProt Q13224)", 827],
  ["Fc1cncc(Cn2ncc3ncc(-c4ccccc4F)cc32)c1", "human GluN1/GluN2B NMDA receptors (Homo sapiens, UniProt Q13224)", 720],
  ["Cc1nonc1Cn1ncc2ncc(-c3ccc(F)c(C(F)F)c3)cc21", "human GluN1/GluN2B NMDA receptors (Homo sapiens, UniProt Q13224)", 34],
  ["Cc1cnc(Cn2ncc3ncc(-c4ccc(F)c(C(F)F)c4)cc32)s1", "human GluN1/GluN2B NMDA receptors (Homo sapiens, UniProt Q13224)", 84],
  ["FC(F)(F)c1cccc(-c2cnc3cnn(Cc4cccnn4)c3c2)c1", "human GluN1/GluN2B NMDA receptors (Homo sapiens, UniProt Q13224)", 240],
  ["Fc1ccc(-c2cnc3cnn(Cc4cn[nH]c4)c3c2)cc1OC(F)F", "human GluN1/GluN2B NMDA receptors (Homo sapiens, UniProt Q13224)", 486],
  ["N#Cc1cc(F)cc(Cn2ncc3ncc(-c4ccc(F)c(OC(F)F)c4)cc32)c1", "human GluN1/GluN2B NMDA receptors (Homo sapiens, UniProt Q13224)", 389],
  ["COc1cncc(Cn2ncc3ncc(-c4ccc(F)c(Cl)c4)cc32)c1", "human GluN1/GluN2B NMDA receptors (Homo sapiens, UniProt Q13224)", 152]
]}

P = Fc1ccc(-c2cnc3cnn(Cc4cncnc4)c3c2)cc1C(F)F
Q = Cn1cnc(Cn2ncc3ncc(-c4cccc(C(F)(F)F)c4)cc32)n1
R = Cc1cc(Cn2ncc3ncc(-c4cccc(C(F)(F)F)c4)cc32)no1
S = Cc1nnc(Cn2nc(F)c3ncc(-c4ccc(F)c(C)c4)cc32)o1
T = Cc1cc(-c2cnc3cnn(Cc4cccnc4C)c3c2)ccc1F
Write the entries in order, lowest recorded IC50 first. # output: labels, in the requested order
P, S, R, T, Q

a = FC(F)(F)c1cccc(-c2cnc3cnn(Cc4nnco4)c3c2)c1
b = N#Cc1cccc(Cn2ncc3ncc(-c4ccc(F)c(C(F)F)c4)cc32)c1
Returns: the label, a or b , whose recorded IC50 is the lower number. Write down the label of the entry you select.
b

A = Cc1noc(Cn2ncc3ncc(-c4ccc(F)cc4)cc32)n1
B = Cc1ccc(Cn2ncc3ncc(-c4cccc(C(F)(F)F)c4)cc32)cn1
Returns: the label, A or B , whose recorded IC50 is the lower number. Write down the label of the entry you select.
A
(A: 957 nM, B: 2170 nM)

1 = Cc1nccc(Cn2ncc3ncc(-c4ccc(F)c(OC(F)F)c4)cc32)n1
2 = COc1ccc(Cn2ncc3ncc(-c4cccc(C(F)(F)F)c4)cc32)cc1 [Example 24, hydrochloride salt]
3 = Cc1cncc(Cn2ncc3ncc(-c4ccc(F)c(OC(F)F)c4)cc32)c1
Write the entries in order, lowest recorded IC50 first. # output: labels, in the requested order
3, 1, 2
